- Tested on: Bacillus subtilis
- assay name: Antibacterial activity against Bacillus subtilis MTCC 441 after 24 hr by broth microdilution method
- Assay type: functional
- test context: MTCC 441, 24 h
measurement type: MIC
Write the figure, then the unit, nothing else.

The recorded MIC for CC1(C)CC(=O)C2=C(C1)N(c1ccc(F)cc1)C(=O)CC2c1cn(-c2ccccc2)nc1-c1ccc(F)cc1 (stereo unspecified) is 0.5 µg/mL

New cases:
Given item O=C1CCCC2=C1C(c1cn(-c3ccccc3)nc1-c1cccs1)CC(=O)N2c1ccc(F)cc1 (stereo unspecified) , the value recorded as its MIC is 0.25 µg/mL

get_value(item= O=C(N[C@H](CO)[C@H](O)c1ccc([N+](=O)[O-])cc1)C(Cl)Cl [CHLORAMPHENICOL] , readout=MIC) returns 0.05 µg/mL

// MIC value for CC1(C)CC(=O)C2=C(C1)N(c1ccc(F)cc1)C(=O)CC2c1cn(-c2ccccc2)nc1-c1cccs1 (stereo unspecified) : 0.25 µg/mL

Per the record, O=C1CCCC2=C1C(c1cn(-c3ccccc3)nc1-c1ccc(Br)cc1)CC(=O)N2c1ccc(F)cc1 (stereo unspecified) has MIC of 0.5 µg/mL

GET /value?item= COc1ccc(-c2nn(-c3ccccc3)cc2C2CC(=O)N(c3ccc(F)cc3)C3=C2C(=O)CC(C)(C)C3)cc1 (stereo unspecified) &field=MIC returns 0.2 µg/mL

* * *

Each entry below lists one item and its recorded MIC value.
- System: Streptococcus pneumoniae
- assay name: Antibacterial activity against Streptococcus pneumoniae MTCC 1936 after 24 hr by broth microdilution method
- Format: functional
- test context: MTCC 1936, 24 h
Value expressed in µg/mL; do not type the unit.

Field MIC (Streptococcus pneumoniae), entry CC1(C)CC(=O)C2=C(C1)N(c1ccc(F)cc1)C(=O)CC2c1cn(-c2ccccc2)nc1-c1ccc(F)cc1 (stereo not drawn) : 500

Record for O=C1CCCC2=C1C(c1cn(-c3ccccc3)nc1-c1ccccc1)CC(=O)N2c1ccc(F)cc1 (stereo not drawn) under target or system Streptococcus pneumoniae: MIC reported as 500

Entry O=C1CCCC2=C1C(c1cn(-c3ccccc3)nc1-c1ccc(F)cc1)CC(=O)N2c1ccc(F)cc1 (stereo not drawn) , tested on Streptococcus pneumoniae, has a reported MIC of 200

* * *

- Test system: Streptococcus pneumoniae
- assay name: Antibacterial activity against Streptococcus pneumoniae MTCC 1936 after 24 hr by broth microdilution method
- Type: functional
- test context: MTCC 1936, 24 h
So basically: is MIC under 100 µg/mL? Then Met. Not under? Then Not met.

Examples with answers:
Take the compound CC1(C)CC(=O)C2=C(C1)N(c1ccc(F)cc1)C(=O)CC2c1cn(-c2ccccc2)nc1-c1cccs1 (stereo unspecified) and say whether its MIC is less than 100 µg/mL.
Not met

Consider CC1(C)CC(=O)C2=C(C1)N(c1ccc(F)cc1)C(=O)CC2c1cn(-c2ccccc2)nc1-c1ccccc1 (stereo unspecified) . Does its MIC lie strictly below 100 µg/mL?
Not met

Please determine if O=C(N[C@H](CO)[C@H](O)c1ccc([N+](=O)[O-])cc1)C(Cl)Cl is below 100 µg/mL in terms of MIC.
Met

// next entry
In plain terms, does COc1ccc(-c2nn(-c3ccccc3)cc2C2CC(=O)N(c3ccc(F)cc3)C3=C2C(=O)CCC3)cc1 (stereo unspecified) come in under 100 µg/mL for MIC?
Not met

Source: ChEMBL document CHEMBL3045375
